- target.desc: hemagglutinin (HA) of influenza B/Massachusetts/02/12 (Yamagata) (influenza B virus)
- assay.remarks: cell-based or functional assay
For each of the binders below, state its VNA IC50.
Note: unit nM is implicit; provide only the numeric part.

Which VNA IC50 reading was recorded for the binder SD3087 (VHH) VHH: EVQLLESGGGLVQPGGSLRLSCAASGFTLENKAIGWFRQAPGKEREGVLCISKSGSWTYYADSVKGRFTISRDNSKNTVYLQMNSLRPEDTAVYYCATTTAGGGLCWDGTTFSRLASSWGQGTLVTVSS ?
104

I am curious: what VNA IC50 value has been reported for SD3093 (VHH) VHH: EVQLVESGGGLVQPGGSLRLSCAISGLSLDTYAVGWFRQAPGKEREGVSCISSGHGMTYYADSVKGRFTISTDNSKNTVYLQMNSLRAEDTAVYYCATESRYYCSDNWPAPQRYIYWGQGTLVTVSS ?
795
